# measurement.notes: Oral bioavailability in cynomolgus monkey at 10 mg/kg
# Format: ADME, organism-based, Macaca fascicularis
# test.settings: in vivo
measured.property: bioavailability (%)

A = Cc1cn2c(-c3cn[nH]c3)cnc2c(Nc2cc(CN3CCC(F)(F)C3)ns2)n1.Cl
B = Cc1cn2c(-c3cn[nH]c3)cnc2c(Nc2cc(CN3CCC(F)CC3)ns2)n1.Cl
Please indicate which entry, A or B , has the lower recorded bioavailability value. Please respond with the label that marks your chosen entry.
A

----------
# measurement.notes: Oral AUC in Sprague-Dawley rat at 30 mg/kg, po
# Type: ADME, organism-based
# Set-up: dose 30 mg/kg, route oral
# test.settings: in vivo
measured.property: AUC (µM·h)

Cc1cn2c(-c3cn[nH]c3)cnc2c(Nc2cc(CN3CCC(F)CC3)ns2)n1.Cl | 8
Cc1cn2c(-c3cn[nH]c3)cnc2c(Nc2cc(CN3CC(F)(F)C3)ns2)n1.O=C(O)C(F)(F)F | 7.1

P = Cc1cn2c(-c3cn[nH]c3)cnc2c(Nc2cc(CN3CCC(F)(F)C3)ns2)n1.Cl
Q = Cc1cn2c(-c3cn[nH]c3)cnc2c(Nc2cc(CNCCC(F)(F)F)ns2)n1.Cl
Hi there! Just curious which has the higher AUC between P and Q . Please respond with the label that marks your chosen entry.
Q

----------
# measurement.notes: Oral AUC in Beagle dog at 10 mg/kg, po
# Format: ADME, organism-based, Canis lupus familiaris
# Set-up: dose 10 mg/kg, route oral
# test.settings: in vivo
measured.property: AUC (µM·h)

Answered examples (2):
Cc1cn2c(-c3cn[nH]c3)cnc2c(Nc2cc(CN3CC(F)(F)C3)ns2)n1.O=C(O)C(F)(F)F | 3.8
Cc1cn2c(-c3cn[nH]c3)cnc2c(Nc2cc(CNCCC(F)(F)F)ns2)n1.Cl | 0.3

I = Cc1cn2c(-c3cn[nH]c3)cnc2c(Nc2cc(CN3CCC(F)(F)C3)ns2)n1.Cl
II = Cc1cn2c(-c3cn[nH]c3)cnc2c(Nc2cc(CN3CCC(F)CC3)ns2)n1.Cl
Please indicate which entry, I or II , has the lower recorded AUC value. Please respond with the label that marks your chosen entry.
I
(I: 2.6 µM·h, II: 6.1 µM·h)

----------
# measurement.notes: AUC (0 to 24 hrs) in CD1 mouse at 50 mg/kg, po
# Type: ADME, organism-based
# Parameters: time < 24 hr, dose 50 mg/kg, route oral
# test.settings: plasma
measured.property: AUC(0-t) at 24 h (µM·h)

1 = Cc1cn2c(-c3cn[nH]c3)cnc2c(Nc2cc(CN3CCC(F)(F)C3)ns2)n1.Cl
2 = Cl.[2H]C([2H])(c1cc(Nc2nc(C)cn3c(-c4cn[nH]c4)cnc23)sn1)N1CCC(F)(F)C1
Please indicate which entry, 1 or 2 , has the lower recorded AUC(0-t) at 24 h value. Please respond with the label that marks your chosen entry.
1
(1: 9.4 µM·h, 2: 35.9 µM·h)

----------
Notes on IC50 obtained with Insulin-like growth factor 1 receptor (Homo sapiens, UniProt P08069).
Sequence (P08069 31-736 limits assumed): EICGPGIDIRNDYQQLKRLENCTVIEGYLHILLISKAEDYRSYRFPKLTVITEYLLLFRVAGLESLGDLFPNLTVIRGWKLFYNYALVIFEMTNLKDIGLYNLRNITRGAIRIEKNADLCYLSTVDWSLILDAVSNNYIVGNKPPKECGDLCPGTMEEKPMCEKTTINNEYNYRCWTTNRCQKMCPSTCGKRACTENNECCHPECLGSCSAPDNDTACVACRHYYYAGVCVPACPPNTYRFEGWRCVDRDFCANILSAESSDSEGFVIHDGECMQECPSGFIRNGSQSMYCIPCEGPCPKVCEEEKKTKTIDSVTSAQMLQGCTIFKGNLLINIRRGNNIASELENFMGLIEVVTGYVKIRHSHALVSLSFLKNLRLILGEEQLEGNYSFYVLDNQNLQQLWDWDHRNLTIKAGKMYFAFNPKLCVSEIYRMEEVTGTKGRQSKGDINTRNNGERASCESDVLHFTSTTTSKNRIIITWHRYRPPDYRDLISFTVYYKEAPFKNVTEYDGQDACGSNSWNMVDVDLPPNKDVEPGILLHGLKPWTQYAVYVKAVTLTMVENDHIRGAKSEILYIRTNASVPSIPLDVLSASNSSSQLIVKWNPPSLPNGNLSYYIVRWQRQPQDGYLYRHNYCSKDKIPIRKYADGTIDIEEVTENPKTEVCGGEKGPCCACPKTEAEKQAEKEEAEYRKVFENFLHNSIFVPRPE
Sequence (P08069 741-1367 limits assumed): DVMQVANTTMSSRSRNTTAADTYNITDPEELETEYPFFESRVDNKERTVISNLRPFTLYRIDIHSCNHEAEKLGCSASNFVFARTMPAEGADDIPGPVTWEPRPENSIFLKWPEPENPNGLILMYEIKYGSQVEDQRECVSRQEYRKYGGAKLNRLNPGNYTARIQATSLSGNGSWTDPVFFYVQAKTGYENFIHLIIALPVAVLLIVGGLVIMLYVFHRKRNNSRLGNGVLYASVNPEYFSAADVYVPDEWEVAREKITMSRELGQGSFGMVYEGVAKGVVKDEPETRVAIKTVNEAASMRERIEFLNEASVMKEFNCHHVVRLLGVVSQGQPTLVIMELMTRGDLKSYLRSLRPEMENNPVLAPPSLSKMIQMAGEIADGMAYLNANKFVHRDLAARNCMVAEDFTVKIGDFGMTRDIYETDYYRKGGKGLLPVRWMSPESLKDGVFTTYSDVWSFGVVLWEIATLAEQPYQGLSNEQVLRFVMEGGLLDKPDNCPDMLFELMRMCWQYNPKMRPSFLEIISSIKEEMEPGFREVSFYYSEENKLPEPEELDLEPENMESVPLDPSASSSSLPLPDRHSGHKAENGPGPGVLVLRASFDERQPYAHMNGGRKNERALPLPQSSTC

Answered examples (2):
CCN(Cc1cc(Nc2nc(C)cn3c(-c4cn[nH]c4)cnc23)sn1)C(C)(C)CO | > 100 nM
Cc1cn2c(-c3cn[nH]c3)cnc2c(Nc2cc(CN3CCC(F)(F)C3)ns2)n1.Cl | > 100 nM

// moving on: another record for IC50
Look up IC50 with Insulin-like growth factor 1 receptor (Homo sapiens, UniProt P08069) for this compound: `Cl.[2H]C([2H])(c1cc(Nc2nc(C)cn3c(-c4cn[nH]c4)cnc23)sn1)N1CCC(F)(F)C1`
> 100 nM

----------
# measurement.notes: AUC (0 to 6 hrs) in rat at 10 mg/kg, po
# Assay type: ADME, organism-based
# Set-up: time < 6 hr, dose 10 mg/kg, route oral
# test.settings: plasma
measured.property: AUC(0-t) at 6 h (µM·h)

Answered examples (3):
Cc1cn2c(-c3cn[nH]c3)cnc2c(Nc2cc(CN3CCCCC3)ns2)n1.Cl | 0.21
Cc1cn2c(-c3cn[nH]c3)cnc2c(Nc2cc(CN3CCC(C(F)(F)F)CC3)ns2)n1.Cl | 1.34
Cc1cn2c(-c3cn[nH]c3)cnc2c(Nc2cc(CN3CCCC(F)C3)ns2)n1.Cl (configuration not stated) | 1.21

a = Cc1cn2c(-c3cn[nH]c3)cnc2c(Nc2cc(CNCC(F)(F)C(F)(F)F)ns2)n1.Cl
b = Cc1cn2c(-c3cn[nH]c3)cnc2c(Nc2cc(CN3CCC(F)(F)CC3)ns2)n1.Cl
Hi there! Just curious which has the higher AUC(0-t) at 6 h between a and b . Please respond with the label that marks your chosen entry.
a

1 = Cc1cn2c(-c3cn[nH]c3)cnc2c(Nc2cc(CN3CC[C@H](F)C3)ns2)n1.Cl
2 = Cc1cn2c(-c3cn[nH]c3)cnc2c(Nc2cc(CN3CC(F)(F)C3)ns2)n1.O=C(O)C(F)(F)F
3 = Cc1cn2c(-c3cn[nH]c3)cnc2c(Nc2cc(CN3CC(F)(F)C(F)(F)C3)ns2)n1.Cl
4 = Cc1cn2c(-c3cn[nH]c3)cnc2c(Nc2cc(CN3CC(F)C3)ns2)n1.O=C(O)C(F)(F)F
5 = Cc1cn2c(-c3cn[nH]c3)cnc2c(Nc2cc(CN3CCCC(F)(F)C3)ns2)n1.Cl
Number of molecules to sort: 5. Sort criterion: AUC(0-t) at 6 h, ascending. Reply: labels, ordered per the request.
3, 4, 1, 5, 2

P = Cc1cn2c(-c3cn[nH]c3)cnc2c(Nc2cc(CN3CC[C@@H](F)C3)ns2)n1.Cl
Q = Cc1cn2c(-c3cn[nH]c3)cnc2c(Nc2cc(CNCCC(F)(F)F)ns2)n1.Cl
R = Cc1cn2c(-c3cn[nH]c3)cnc2c(Nc2cc(CN3CCC(F)CC3)ns2)n1.Cl
S = Cl.[2H]C([2H])(c1cc(Nc2nc(C)cn3c(-c4cn[nH]c4)cnc23)sn1)N1CCC(F)(F)C1
List items by AUC(0-t) at 6 h in falling order. Reply: labels, ordered per the request.
Q, S, R, P
(Q: 10.9 µM·h, S: 4.73 µM·h, R: 2.2 µM·h, P: 0.74 µM·h)

----------
# measurement.notes: AUC (0 to 24 hrs) in Sprague-Dawley rat at 30 mg/kg, po
# Format: ADME, organism-based
# Design: time < 24 hr, dose 30 mg/kg, route oral
# test.settings: plasma
measured.property: AUC(0-t) at 24 h (µM·h)

P = Cc1cn2c(-c3cn[nH]c3)cnc2c(Nc2cc(CN3CCC(F)(F)C3)ns2)n1.Cl
Q = Cl.[2H]C([2H])(c1cc(Nc2nc(C)cn3c(-c4cn[nH]c4)cnc23)sn1)N1CCC(F)(F)C1
Hi there! Just curious which has the higher AUC(0-t) at 24 h between P and Q . Please respond with the label that marks your chosen entry.
Q
(Q: 62.1 µM·h, P: 6.9 µM·h)

----------
# measurement.notes: Oral bioavailability in cynomolgus monkey at 30 mg/kg
# Assay type: ADME, organism-based, Macaca fascicularis
# test.settings: in vivo
measured.property: bioavailability (%)

Cc1cn2c(-c3cn[nH]c3)cnc2c(Nc2cc(CN3CCC(F)(F)C3)ns2)n1.Cl | 2
Cl.[2H]C([2H])(c1cc(Nc2nc(C)cn3c(-c4cn[nH]c4)cnc23)sn1)N1CCC(F)(F)C1 | 2

----------
# measurement.notes: Oral bioavailability in Sprague-Dawley rat at 30 mg/kg
# Format: ADME, organism-based
# test.settings: in vivo
measured.property: bioavailability (%)

Answered examples (3):
Cc1cn2c(-c3cn[nH]c3)cnc2c(Nc2cc(CN3CCC(F)(F)C3)ns2)n1.Cl | 19
Cc1cn2c(-c3cn[nH]c3)cnc2c(Nc2cc(CN3CCC(F)CC3)ns2)n1.Cl | 21
Cc1cn2c(-c3cn[nH]c3)cnc2c(Nc2cc(CNCCC(F)(F)F)ns2)n1.Cl | 22

1 = Cl.[2H]C([2H])(c1cc(Nc2nc(C)cn3c(-c4cn[nH]c4)cnc23)sn1)N1CCC(F)(F)C1
2 = Cc1cn2c(-c3cn[nH]c3)cnc2c(Nc2cc(CN3CC(F)(F)C3)ns2)n1.O=C(O)C(F)(F)F
Please indicate which entry, 1 or 2 , has the lower recorded bioavailability value. Please respond with the label that marks your chosen entry.
2
(2: 12%, 1: 33%)

----------
# target.entity: Aurora kinase A (Homo sapiens, UniProt O14965)
# Sequence (O14965 whole entry): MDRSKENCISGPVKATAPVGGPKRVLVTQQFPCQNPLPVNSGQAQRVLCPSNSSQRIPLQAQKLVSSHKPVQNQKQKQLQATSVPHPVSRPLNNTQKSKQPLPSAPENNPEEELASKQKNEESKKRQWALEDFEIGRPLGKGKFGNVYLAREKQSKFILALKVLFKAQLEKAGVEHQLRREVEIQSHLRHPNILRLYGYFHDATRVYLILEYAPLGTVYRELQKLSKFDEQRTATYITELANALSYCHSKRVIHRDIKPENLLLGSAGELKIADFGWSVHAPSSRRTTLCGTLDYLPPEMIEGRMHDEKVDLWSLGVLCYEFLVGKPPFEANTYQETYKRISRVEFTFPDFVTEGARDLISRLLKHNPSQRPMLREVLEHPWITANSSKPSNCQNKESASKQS
pIC50: −log10 of the molar value.
# pIC50 values compiled below

Cc1cn2c(-c3cn[nH]c3)cnc2c(Nc2cc(CN3CC(F)(F)C3)ns2)n1.O=C(O)C(F)(F)F | ≥ 8.40

State the recorded pIC50 for this entry: `Cc1cn2c(-c3cn[nH]c3)cnc2c(Nc2cc(CNCCC(F)(F)F)ns2)n1.Cl`
≥ 8.40

State the recorded pIC50 for this entry: `Cc1cn2c(-c3cn[nH]c3)cnc2c(Nc2cc(CN3CC[C@H](F)C3)ns2)n1.Cl`
≥ 8.40

State the recorded pIC50 for this entry: `Cc1cn2c(-c3cn[nH]c3)cnc2c(Nc2cc(CN(CC(F)F)C(C)(C)CO)ns2)n1.Cl`
≥ 8.40

State the recorded pIC50 for this entry: `Cc1cn2c(-c3cn[nH]c3)cnc2c(Nc2cc(CN(CC(F)(F)F)C(C)(C)CO)ns2)n1.Cl`
≥ 8.40

State the recorded pIC50 for this entry: `Cc1cn2c(-c3cn[nH]c3)cnc2c(Nc2cc(CN3CCC(C(F)(F)F)CC3)ns2)n1.Cl`
≥ 8.40
